From: the OligoGym collection

# system-under-test: NOG
# assay-info: reporter assay of Huesken 2005
# reported-conditions: siRNA
Oligonucleotides are written 5' to 3', each unit as a sugar letter and its base; * is a phosphorothioate linkage, no mark a phosphodiester; rarer units and linkages stand in square brackets, end groups in braces. Plain capitals give the bases only. d = 2'-deoxy (DNA); r = 2'-OH (RNA)
Reported normalised inhibition (eCFP-eYFP dual reporter) values follow for various substances
Give just the number in %; leave the unit off.

{"columns": ["substance", "value-unit", "assay-value"],
 "data": [
  ["sense rGrCrCrGrUrCrCrArArGrUrCrCrGrUrGrCrArCdTdT / antisense rGrUrGrCrArCrGrGrArCrUrUrGrGrArCrGrGrCdTdT", "%", 66.1],
  ["sense rGrGrGrCrArArGrArArGrCrArGrCrGrCrCrUrAdTdT / antisense rUrArGrGrCrGrCrUrGrCrUrUrCrUrUrGrCrCrCdTdG", "%", 93.3],
  ["sense rGrCrGrArGrArUrCrArArArGrGrGrCrUrArGrAdTdT / antisense rUrCrUrArGrCrCrCrUrUrUrGrArUrCrUrCrGrCdTdC", "%", 96.7],
  ["sense rCrCrArGrCrUrGrCrUrGrCrGrGrCrArGrCrGrGdTdT / antisense rCrCrGrCrUrGrCrCrGrCrArGrCrArGrCrUrGrGdTdC", "%", 78.3],
  ["sense rCrCrArCrArUrCrCrGrCrCrCrGrGrCrArCrCrCdTdT / antisense rGrGrGrUrGrCrCrGrGrGrCrGrGrArUrGrUrGrGdAdG", "%", 51.4]
]}

Query string: Look at this substance and give its reported normalised inhibition (eCFP-eYFP dual reporter). sense rArGrUrArArGrCrGrCrUrCrGrUrGrCrUrCrCrGdTdT / antisense rCrGrGrArGrCrArCrGrArGrCrGrCrUrUrArCrUdGdA
Result string: 51

----------
# system-under-test: UBE2L6
# assay-info: reporter assay of Huesken 2005
# reported-conditions: siRNA
Oligonucleotides are written 5' to 3', each unit as a sugar letter and its base; * is a phosphorothioate linkage, no mark a phosphodiester; rarer units and linkages stand in square brackets, end groups in braces. Plain capitals give the bases only. d = 2'-deoxy (DNA); r = 2'-OH (RNA)
The reader will find reported normalised inhibition (eCFP-eYFP dual reporter) values listed item by item below.
Provide the reading as a plain figure in %.

Query string: Query: normalised inhibition (eCFP-eYFP dual reporter); subject: sense rCrArGrCrArGrUrGrArGrArArCrUrGrGrArArGdTdT / antisense rCrUrUrCrCrArGrUrUrCrUrCrArCrUrGrCrUrGdAdT
Result string: 74.9

Query string: What value of measured normalised inhibition (eCFP-eYFP dual reporter) is listed for sense rCrGrArUrGrArUrGrCrCrArArUrGrUrCrCrUrGdTdT / antisense rCrArGrGrArCrArUrUrGrGrCrArUrCrArUrCrGdCdT ?
Result string: 97.1

Query string: Recorded normalised inhibition (eCFP-eYFP dual reporter) for sense rCrGrGrArUrGrGrArCrCrUrCrGrCrUrGrArCrCdTdT / antisense rGrGrUrCrArGrCrGrArGrGrUrCrCrArUrCrCrGdCdA , please?
Result string: 71.6

----------
# system-under-test: UBE2L6
# assay-info: reporter assay of Huesken 2005
# reported-conditions: siRNA
Oligonucleotides are written 5' to 3', each unit as a sugar letter and its base; * is a phosphorothioate linkage, no mark a phosphodiester; rarer units and linkages stand in square brackets, end groups in braces. Plain capitals give the bases only. d = 2'-deoxy (DNA); r = 2'-OH (RNA)
Record Satisfied whenever normalised inhibition (eCFP-eYFP dual reporter) is at 70% or higher; record Not satisfied when lower.

Illustrative cases are given below, each with its answer.
{"columns": ["substance", "category"],
 "data": [
  ["sense rCrCrUrGrUrCrCrArGrCrGrArUrGrArUrGrCrCdTdT / antisense rGrGrCrArUrCrArUrCrGrCrUrGrGrArCrArGrGdTdT", "Satisfied"],
  ["sense rCrCrGrArArUrArUrCrArGrGrGrArGrCrCrCrCdTdT / antisense rGrGrGrGrCrUrCrCrCrUrGrArUrArUrUrCrGrGdTdC", "Not satisfied"],
  ["sense rArArCrUrGrGrArArGrCrCrUrUrGrCrArCrCrAdTdT / antisense rUrGrGrUrGrCrArArGrGrCrUrUrCrCrArGrUrUdCdT", "Satisfied"],
  ["sense rUrCrUrCrCrUrCrCrUrArCrCrCrGrArCrCrArAdTdT / antisense rUrUrGrGrUrCrGrGrGrUrArGrGrArGrGrArGrAdGdC", "Satisfied"]
]}

Query string: Determine whether measured normalised inhibition (eCFP-eYFP dual reporter) meets or exceeds 70% for sense rArCrUrUrGrCrCrArArGrUrCrCrUrGrGrArGrGdTdT / antisense rCrCrUrCrCrArGrGrArCrUrUrGrGrCrArArGrUdCdT
Result string: Not satisfied

Query string: Given sense rCrCrCrArUrCrArUrCrArGrCrArGrUrGrArGrAdTdT / antisense rUrCrUrCrArCrUrGrCrUrGrArUrGrArUrGrGrGdCdA , state whether its normalised inhibition (eCFP-eYFP dual reporter) is at least 70%.
Result string: Satisfied

----------
# system-under-test: UBE2N
# assay-info: reporter assay of Huesken 2005
# reported-conditions: siRNA
Oligonucleotides are given in HELM: sugar(base)linkage, 5' to 3'; d 2'-deoxyribose, r ribose, m 2'-O-methylribose, p phosphate. ss, as = sense and antisense strand
Kind request: treat 50% as inclusive, so normalised inhibition (eCFP-eYFP dual reporter) at 50% or higher is Fulfilled, anything lower is Not fulfilled.

Query string: Given `RNA1{r(G)p.r(C)p.r(A)p.r(G)p.r(A)p.r(U)p.r(C)p.r(C)p.r(G)p.r(C)p.r(A)p.r(C)p.r(A)p.r(G)p.r(U)p.r(U)p.r(C)p.r(U)p.r(G)p.d(T)p.d(T)}|RNA2{r(C)p.r(A)p.r(G)p.r(A)p.r(A)p.r(C)p.r(U)p.r(G)p.r(U)p.r(G)p.r(C)p.r(G)p.r(G)p.r(A)p.r(U)p.r(C)p.r(U)p.r(G)p.r(C)p.d(A)p.d(G)}$$$RNA1{StrandType:ss}|RNA2{StrandType:as}$` , state whether its normalised inhibition (eCFP-eYFP dual reporter) is at least 50%.
Result string: Fulfilled

Query string: Does `RNA1{r(A)p.r(U)p.r(C)p.r(C)p.r(G)p.r(C)p.r(A)p.r(C)p.r(A)p.r(G)p.r(U)p.r(U)p.r(C)p.r(U)p.r(G)p.r(C)p.r(U)p.r(A)p.r(U)p.d(T)p.d(T)}|RNA2{r(A)p.r(U)p.r(A)p.r(G)p.r(C)p.r(A)p.r(G)p.r(A)p.r(A)p.r(C)p.r(U)p.r(G)p.r(U)p.r(G)p.r(C)p.r(G)p.r(G)p.r(A)p.r(U)p.d(C)p.d(T)}$$$RNA1{StrandType:ss}|RNA2{StrandType:as}$` have a reported normalised inhibition (eCFP-eYFP dual reporter) of at least 50%?
Result string: Fulfilled

Query string: Please indicate if the recorded normalised inhibition (eCFP-eYFP dual reporter) for `RNA1{r(G)p.r(A)p.r(A)p.r(G)p.r(A)p.r(C)p.r(C)p.r(A)p.r(A)p.r(C)p.r(G)p.r(A)p.r(A)p.r(G)p.r(C)p.r(C)p.r(C)p.r(A)p.r(A)p.d(T)p.d(T)}|RNA2{r(U)p.r(U)p.r(G)p.r(G)p.r(G)p.r(C)p.r(U)p.r(U)p.r(C)p.r(G)p.r(U)p.r(U)p.r(G)p.r(G)p.r(U)p.r(C)p.r(U)p.r(U)p.r(C)p.d(C)p.d(A)}$$$RNA1{StrandType:ss}|RNA2{StrandType:as}$` meets or exceeds 50%.
Result string: Fulfilled

Query string: Determine whether measured normalised inhibition (eCFP-eYFP dual reporter) meets or exceeds 50% for `RNA1{r(G)p.r(U)p.r(G)p.r(G)p.r(U)p.r(C)p.r(A)p.r(U)p.r(U)p.r(G)p.r(C)p.r(U)p.r(G)p.r(G)p.r(C)p.r(C)p.r(C)p.r(U)p.r(C)p.d(T)p.d(T)}|RNA2{r(G)p.r(A)p.r(G)p.r(G)p.r(G)p.r(C)p.r(C)p.r(A)p.r(G)p.r(C)p.r(A)p.r(A)p.r(U)p.r(G)p.r(A)p.r(C)p.r(C)p.r(A)p.r(C)p.d(A)p.d(T)}$$$RNA1{StrandType:ss}|RNA2{StrandType:as}$`
Result string: Fulfilled

Query string: Has `RNA1{r(C)p.r(C)p.r(A)p.r(U)p.r(U)p.r(A)p.r(G)p.r(C)p.r(A)p.r(A)p.r(A)p.r(U)p.r(G)p.r(A)p.r(U)p.r(G)p.r(U)p.r(A)p.r(G)p.d(T)p.d(T)}|RNA2{r(C)p.r(U)p.r(A)p.r(C)p.r(A)p.r(U)p.r(C)p.r(A)p.r(U)p.r(U)p.r(U)p.r(G)p.r(C)p.r(U)p.r(A)p.r(A)p.r(U)p.r(G)p.r(G)p.d(A)p.d(T)}$$$RNA1{StrandType:ss}|RNA2{StrandType:as}$` a recorded normalised inhibition (eCFP-eYFP dual reporter) greater than or equal to 50%?
Result string: Fulfilled

Query string: Please tell me: is the substance `RNA1{r(C)p.r(A)p.r(U)p.r(U)p.r(A)p.r(G)p.r(C)p.r(A)p.r(A)p.r(A)p.r(U)p.r(G)p.r(A)p.r(U)p.r(G)p.r(U)p.r(A)p.r(G)p.r(C)p.d(T)p.d(T)}|RNA2{r(G)p.r(C)p.r(U)p.r(A)p.r(C)p.r(A)p.r(U)p.r(C)p.r(A)p.r(U)p.r(U)p.r(U)p.r(G)p.r(C)p.r(U)p.r(A)p.r(A)p.r(U)p.r(G)p.d(G)p.d(A)}$$$RNA1{StrandType:ss}|RNA2{StrandType:as}$` at or over 50% in terms of normalised inhibition (eCFP-eYFP dual reporter)?
Result string: Not fulfilled
